# TARGET_UNDER_TEST: CathepsinG, from human neutrophils (Homo sapiens, UniProt P08311)
# Sequence (P08311 21-244): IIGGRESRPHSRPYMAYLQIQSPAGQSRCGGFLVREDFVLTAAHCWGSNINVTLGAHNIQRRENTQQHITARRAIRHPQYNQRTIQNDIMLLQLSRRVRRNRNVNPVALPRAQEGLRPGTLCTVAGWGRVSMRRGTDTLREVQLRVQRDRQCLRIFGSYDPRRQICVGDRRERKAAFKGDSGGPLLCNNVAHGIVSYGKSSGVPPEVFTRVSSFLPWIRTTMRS
# PROTOCOL_DESCRIPTION: Enzymatic assay, cathepsin G
# TEST_CONDITIONS: at 100 μM
Where a SMILES comes first, the peptide text is derived from it.
PARAMETER: Cathepsin G at 100 μM % (at 100%)
Reply with just the number (in at 100%).

## Task # Cathepsin G at 100 μM % lookup, item CCCCCCCC[C@@H]1NC(=O)[C@@H]2CCCN2C(=O)[C@H]2CCCN2C(=O)[C@H](Cc2ccc(O)cc2)NC(=O)[C@H]([C@@H](C)O)NC(=O)[C@H](CCC(N)=O)NC(=O)[C@@H]2CCCN2C(=O)[C@@H]2CCCN2C(=O)[C@H]([C@@H](C)CC)NC(=O)[C@H](CO)NC(=O)[C@H](C)NC(=O)[C@H]([C@@H](C)O)NC(=O)[C@H](CCC(N)=O)NC1=O [Ex. 154] (HELM PEPTIDE1{[CCCCCCCC[C@H](N[*:1])C(=O)[*:2]].Q.T.A.S.I.P.P.Q.T.Y.[dP].P}$PEPTIDE1,PEPTIDE1,1:R1-13:R2$$$V2.0)
## Result 27

Numbers sourced from patent US8658604B2.
